Numbers sourced from PubChem BioAssay AID709.

Test: intrinsic fluorescence of library compounds, ex339/em460 – biochemical, MLSMR library, data from DPM-DC assay, artefact control, profiling panel (AID 709);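 also: signal is the first read of a kinetic run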
Conditions: compound autofluorescence, ex339/em460 nm, NADH buffer; at 10 µM; stronger effect = higher value; 1 = no-compound wells, NADH background
The campaign covered roughly 65,000 compounds. About 3,600 (5.5%) were called active. For the sample, actives were picked, then their nearest neighbours and some compounds at random.
Give fluorescence fold increase for every item shown.
Numbers only.

O=c1[nH]c(-c2cccs2)nc2ccccc12    1.17
Cc1ccccc1CN1CCN(CC(=O)NCc2ccccn2)C1=O    1.13
Cc1nc2nc(COc3ccccc3)[nH]n2c(=O)c1Cc1ccccc1    1.09
COc1cc(-n2c(C)nc3cc(C(=O)NCc4ccco4)ccc32)cc(OC)c1OC    1.09
Cc1cccn2c(=O)c3cc(C(=O)N4COCC4(C)C)n(C)c3nc12    4.96

Now for a further compound.
Query: For the compound COc1ccc(-c2cc(C(F)(F)F)n3nc(C(=O)N4CCOCC4)c(Cl)c3n2)cc1 , give its reported fluorescence fold increase.
Reply: 1.17

====

Give fluorescence fold increase for every item shown.
Assay: intrinsic fluorescence of library compounds, ex339/em460 – biochemical, MLSMR library, data from DPM-DC assay, artefact control, profiling panel (AID 709);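 also: signal is the first read of a kinetic run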
Conditions: compound autofluorescence, ex339/em460 nm, NADH buffer; at 10 µM; stronger effect = higher value; 1 = no-compound wells, NADH background
Hit rate of the full screen: of about 65,000 compounds, about 3,600 (5.5%) were called active. The sample as a whole holds a higher share of actives than the screen did.
One number for each entry.

Field: example entries. Status: answers known.
CC(=O)Oc1ccc2c(C)c(CC(C)O)c(=O)oc2c1 (configuration not stated)    3.67
CCOc1ccc(C(CC(=O)O)NC(=O)COc2ccccc2)cc1 (configuration not stated)    1.07
O=C1CCCC2=C1C(c1cccs1)n1nc(SCc3ccccc3)nc1N2 (configuration not stated)    2.52
COc1ccc(-c2cc(C(=O)NC(C(=O)O)C(C)C)c(C)o2)cc1OC (configuration not stated)    1.05
CC1(C)Cc2cccc(OCC(=O)Nc3nccs3)c2O1    1.08
C=CCNc1nnc(C)c2ccccc12    1.09
CCOC(=O)CCc1c(C)c(C#N)c2[nH]c3ccccc3n2c1=O    2.29
CCOC(=O)C1CCN(C(=O)Cn2cc(C#N)c3ccccc32)CC1    1.19

Lab note: each molecule below needs its fluorescence fold increase filled in.
1. CCOC(=O)CC1=CC(=O)Nc2ccccc2N1
2. CC1(C)Oc2ccc3ccc(=O)oc3c2/C(=C/NCCO)C1=O
3. Cc1nc(NC(=O)C23CCC(C)(C(=O)O2)C3(C)C)sc1C (configuration not stated)
4. CCCC(=O)N1c2ccccc2NC2=C(C(=O)CCC2)C1c1ccc(F)cc1 (configuration not stated)

Reply:
1: 1.15; 2: 1.05; 3: 1.02; 4: 1.08

====

Assay: intrinsic fluorescence of library compounds, ex339/em460 – biochemical, MLSMR library, data from DPM-DC assay, artefact control, profiling panel (AID 709);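 also: signal is the first read of a kinetic run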
Conditions: compound autofluorescence, ex339/em460 nm, NADH buffer; at 10 µM; stronger effect = higher value; 1 = no-compound wells, NADH background
In all, about 65,000 compounds went through this assay and about 3,600 (5.5%) were called active. Only a selection was taken, and actives are over-represented in it overall.
endpoint-name: fluorescence fold increase
Give bare numbers.

CCOc1ccc(OCC)c(NC(=O)CSc2nnc(Cn3cnc4ccccc43)n2C)c1    1.12
Cc1oc(C)c(C(=O)NCCCC(=O)O)c1C(=O)NCCCC(=O)O    1.14
C[N+]1(CCNC(=O)/C=N/O)CCCCC1    1.1
COC(=O)C(C)Sc1ccc2nnc(-c3cccc(F)c3)n2n1 (stereo not given)    2.06
CC(=O)c1cc(-c2ccccc2)[nH]c1N1CCCC1    1.05
C=CCSC1=C(C#N)C(c2cc(Br)c(O)c(OC)c2)CC(=O)N1 (stereo not given)    1.07

Lab note: each compound below needs its fluorescence fold increase filled in.
1. Cc1onc(-c2ccccc2)c1C(=O)N1CCOCC1
2. CCCCCCn1c(CN2CCCCC2)nc2c1c(=O)n(C)c(=O)n2C

Reply:
1: 1.04; 2: 1.13

Lab note: each compound below needs its fluorescence fold increase filled in.
1. CCc1cc(=O)oc2cc(C)cc(OC(C)C(=O)O)c12 (stereo not given)
2. Cc1ccc(C(=O)CS(C)(=O)=O)cc1
3. COc1ccc(CCn2c(-c3ccco3)nc3nc4ccccc4nc32)cc1OC

Reply:
3.78
1.35
1.07
